- Tested on: thromboxane production in human platelet rich plasma (TxB2)
- protocol-notes: Thromboxane production in human platelet rich plasma (TxB2 radioimmunoassay, collagen stimulated)
- Format: cell-based
- applied-conditions: read-out: ACTIVITY (IC50 × 10^6 M)
- Procedure: The antithrombotic activity of the compounds of the invention has been determined by their ability to inhibit production of thromboxane A2 (TxA2) by blood platelets the synthesis of which is an important factor in the aggregation of platelets and the initiation of thrombosis (R. J. Gryglewski, CRC Crit. Rev. Biochem., (1980), 7(4), 291). […] Human venous blood was […] from healthy male donors, who had denied any medication during the previous 14 days. […]
readout-kind: IC50 (µM)

compound	measure-unit	IC50
COc1ccc(COCC(Cn2ccnc2)OCc2ccc(C#N)cc2)cc1 (centres unmarked)	µM	12
c1cncc(COC(COCc2ccc3c(c2)OCO3)Cn2ccnc2)c1 (centres unmarked)	µM	13
COc1ccc(COCC(Cn2ccnc2)OCc2ccc(OC)cc2)cc1 (centres unmarked)	µM	12
COc1ccc(COCC(Cn2ccnc2)OCc2ccccc2)cc1 (centres unmarked)	µM	11
COc1ccc(COCC(Cn2ccnc2)OCc2ccccn2)cc1 (centres unmarked)	µM	10
